# TARGET_SYSTEM: T1, huROR1-His (human ROR1 ECD AA30-406 with C-terminal His tag, made in house) (human, UniProt Q01973 30-406)
# T1 construct: range 30-406; Expressed in HEK293; also called antigen protein huROR1-His; not shown: C-terminal His tag
# T1 sequence (Q01973 30-406 limits assumed): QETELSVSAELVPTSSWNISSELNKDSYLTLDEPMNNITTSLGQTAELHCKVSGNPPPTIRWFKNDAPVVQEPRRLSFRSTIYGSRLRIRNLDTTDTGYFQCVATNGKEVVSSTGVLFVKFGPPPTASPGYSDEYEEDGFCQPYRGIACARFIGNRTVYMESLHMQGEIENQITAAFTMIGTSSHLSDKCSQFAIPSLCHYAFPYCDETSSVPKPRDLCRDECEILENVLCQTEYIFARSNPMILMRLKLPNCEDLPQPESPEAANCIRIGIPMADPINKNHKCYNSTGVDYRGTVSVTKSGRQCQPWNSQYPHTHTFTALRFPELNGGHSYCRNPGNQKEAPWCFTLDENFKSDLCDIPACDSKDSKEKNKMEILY
# TEST_DETAILS: ELISA, huROR1-His coated plate, goat anti-human Fc-HRP, OD450
RECORDED_ENDPOINT: EC50 (ng/mL)
Record the value in ng/mL, omitting the unit from your answer.

# binder B31-H3L4 (antibody, human IgG1, kappa, V domains shown) VH: EVQLVESGGGLVQPGGSLRLSCAASGFTFSRYAMSWVRQAPGKGLEWVASISRGGSTYYADSVKGRFTISRDNSKNTLYLQMNSLRAEDTAVYYCASYFGNYDAMDYWGQGTTVTVSS VL: DIQMTQSPSSLSASVGDRVTITCRASQDINNYLSWFQQKPGKAPKSLIYRANRLQSGVPSRFSGSGSGTDFTLTISSLQPEDFATYYCLQFDEFPYTFGGGTKLEIKR ; its EC50 = 5.23

# binder B31 (chimeric antibody) (antibody, human IgG1, kappa, V domains shown, ExpiCHO expression) VH: EVMLVESGGGLVKPGGSLKLSCAASGFTFSRYAMSWVRQTPEKRLEWVASISRGGSTYYPDSVKGRFTISRDNARNILYLQMSSLRSEDTAMYYCASYFGNYDAMDYWGQGTSVTVSS VL: DIQMNQSPSSMYASLGERVTITCKASQDINNYVSWFQQKPGKSPKTLIYRANRLVDGVPSRFSGSGSGQDYSFTISSLEYEDMGIYYCLQFDEFPYTFGGGTKLEIKR ; its EC50 = 1.92

# binder B31-H3L2 (antibody, human IgG1, kappa, V domains shown) VH: EVQLVESGGGLVQPGGSLRLSCAASGFTFSRYAMSWVRQAPGKGLEWVASISRGGSTYYADSVKGRFTISRDNSKNTLYLQMNSLRAEDTAVYYCASYFGNYDAMDYWGQGTTVTVSS VL: DIQMTQSPSSLSASVGDRVTITCKASQDINNYVSWFQQKPGKAPKSLIYRANRLVDGVPSRFSGSGSGTDYTFTISSLQPEDFATYYCLQFDEFPYTFGGGTKLEIKR ; its EC50 = 3.23

# binder B31-H3L3 (antibody, human IgG1, kappa, V domains shown) VH: EVQLVESGGGLVQPGGSLRLSCAASGFTFSRYAMSWVRQAPGKGLEWVASISRGGSTYYADSVKGRFTISRDNSKNTLYLQMNSLRAEDTAVYYCASYFGNYDAMDYWGQGTTVTVSS VL: DIQMTQSPSSLSASVGDRVTITCRASQDINNYVSWFQQKPGKAPKSLIYRANRLVSGVPSRFSGSGSGTDFTFTISSLQPEDFATYYCLQFDEFPYTFGGGTKLEIKR ; its EC50 = 4.6

This collection of values is drawn from patent US20250177546A1.
